- test system: T1, Recombinant CSP (Wellcome Trust Sanger Institute, FIG. 22), CSP ectodomain with BirA biotinylation tag, … (Plasmodium falciparum strain 3D7, UniProt Q7K740 19-376, biotinylated at the BirA substrate peptide)
- T1 construct: extracellular domain; Expressed in HEK293, 45 kDa; order of the tags is that of the legend, not confirmed; also called biotinylated recombinant CSP
- method notes: SPR (ProteOn), biotinylated CSP on NLC chip, Fab as analyte, 25 C, 1:1 fit
Can you tell me kon for the items I'm about to list?
Just the number in M⁻¹ s⁻¹, nothing appended.

Find the recorded kon belonging to Antibody 667 Fab (Fab, V domains shown, recombinant human Fab from CHO-3E7 cells, purified on nickel columns) VH: QVQLVQSGAEVKKPGASVKVSCRASGYTFTNYAMHWVRQAPGQRLEWMGWINAGNGYTKYSQKFQDRVTITRDTSATTAYMELSSLRSEDTAMYYCARDSFYDILSGPVYHYYGMDVWGQGTTVTVSS VL: QSALTQPDSVSGSPGQSITISCTGTSNDVGIYNHVSWYQQHPGKAPKLMIYDVNKRPSGISNRFSGSKSGDTASLTISGLQAEDEADYYCCSYAGSSAWVFGGGTKLTVL and report it.
25000

Find the recorded kon belonging to Antibody 666 Fab (Fab, V domains shown, recombinant human Fab from CHO-3E7 cells, purified on nickel columns) VH: QVQLVQSGAEVKKPGASVKVSCKASGYTFTNYAMHWVRQAPGQRLEWMGWINAGNGNTKYSQNFQGRVTITRDTSASTAYMELSSLRSEDTAVYYCARDEYYASGSYYDYYYYGMDVWGQGTTVTVTS VL: QSALTQPASVSGSPGQSITISCTGTSSDVGVYNYVSWFQQHPGKAPKLMIYNVSKRPSGVSNRFSGSKSGNTASLTISGLQAEDEADYYCCSYAGSSTWVFGGGTNLTVL and report it.
48000

Find the recorded kon belonging to Antibody 668 Fab (Fab, V domains shown, recombinant human Fab from CHO-3E7 cells, purified on nickel columns) VH: QVQLVQSGAEVKKPGASVKVSCKASGFTFTDYAMHWVRQAPGQRLEWMGWINAGNGYTKYSQKFQDRLTITRDTFASTVYMELSSLRSEDTTVYYCARDGFCPSNTCSGYYGMDVWGQGTTVTVSS VL: QSALTQPASVSGSPGQSITISCTGTSSDVGSYNYVSWYQQHPGKAPKLMIYDVNTRPSGVSIRFSASKSGNTASLTVSGLQAEDEAVYYCSSYAGSSTWVFGGGTKLTVL and report it.
37900
